molecular target: chymotrypsin-like activity of the 20S CP (Homo sapiens, UniProt P28074); construct: 5 μL purified 20S proteasome (90 nM in Tris-HCl) was added to the control and test wells; experiment: Kinetic assay, CT-L FRET reporter hydrolysis by purified 20S CP; conditions: CT-L FRET reporter, dose response 0.78125-400 μM, triplicate; read-out: EC50 (concentration of half of the maximum stimulation) for 20S CP stimulation
Each entry below carries its reported pEC50.
Friendly reminder that pEC50 comes from taking -log10 of the concentration in mol/L.

C[C@H]1[C@H](C)CC[C@]2(C(=O)O)CC[C@]3(C)C(=CC[C@@H]4[C@@]5(C)CC[C@H](O)C(C)(C)[C@@H]5CC[C@]43C)[C@H]12 [Compound 2, ursolic acid]
4.85

As a next step, examine the compound that follows.
Find the measured pEC50 of Cc1c(C)c2c(c(C)c1OC(=O)CCC(=O)O)CC[C@@](C)(CCC[C@H](C)CCC[C@H](C)CCCC(C)C)O2 [Compound 3, vitamin E succinate] and report it.
5.15
